# Assay name: Caspase-3/7 induction in CHO-K1 cells by small molecules, qHTS assay (AID 1346980); note: nearly all actives have a fitted effect of over 15% in size
# Protocol conditions: CHO-K1 caspase-3/7 induction, Caspase-Glo luminescence, 17 h; series mostly up to 92.4 µM
The source made the active and inactive calls. Calls come from the whole dose curve; as a rule, active = well fitted activation curve with a large enough effect in the repeat runs; inconclusive = weak or mixed curves; inactive = flat fitted curve, though single readings scatter.
Measured parameter: caspase-3/7 activation

> print(dat)
                                   compound  experimental.value
1             Cc1c(C(=O)O)cccc1[N+](=O)[O-]            inactive
2                              CCOB(OCC)OCC            inactive
3  CN1[C@@H]2CC[C@@H]1CC(OC(=O)C(CO)c1ccccc1)C2 (stereo partly drawn)            inactive
4                         C[Si](C)O[Si](C)C            inactive

Query block: # query: caspase-3/7 activation of entry O=C(O)CCn1c2c(c3ccccc31)C[C@H](NS(=O)(=O)c1ccc(F)cc1)CC2
Result block: inactive

Query block: Please give the result for C/C=C/c1ccc(OC)c(OC)c1 too.
Result block: inactive

Query block: Please give the result for CC1CCCCN1CCCOC(=O)c1ccc(OC2CCCCC2)cc1 (stereo not drawn) too.
Result block: inactive

Query block: Please give the result for NCCCC(O)(P(=O)(O)O)P(=O)(O)O too.
Result block: inactive

Query block: Please give the result for OCCN1CN(CCO)CN(CCO)C1 too.
Result block: inactive

Query block: Please give the result for Cn1cccc1 too.
Result block: inactive

Query block: Please give the result for [O]=[Zr] too.
Result block: inactive

====

# Assay name: qHTS assay for identifying genotoxic compounds that show differential cytotoxicity against isogenic chicken DT40 cell lines with known DNA damage response pathways - Rad54/Ku70 mutant cell line (AID 743015); note: nearly all actives have a fitted effect of over 60% in size
# Protocol conditions: DT40 Rad54/Ku70 mutant viability, CellTiter-Glo, 40 h; series mostly up to 66.8 µM
Records with an inconclusive call do not appear. Calls of active or inactive are those of the source. Calls follow the shape of the dose curve; as a rule, active = well fitted cell-killing curve with a large enough effect in the repeat runs; inconclusive = weak or mixed curves; inactive = no such curve, though single readings can be large or run the other way.
Please answer using one outcome listed in Yes for active, No for inactive

> print(dat)
                                   compound  class.label
1              CSc1c(Cl)c(Cl)c(Cl)c(Cl)c1Cl           No
2                O=C(c1ccccc1)c1cc(Cl)ccc1O           No
3  CCCCCCC(C)OC(=O)COc1nc(F)c(Cl)c(N)c1Cl (stereo not given)          Yes
4                         Cn1cnc2ncnc(N)c21           No
5  c1cc(OCC2CO2)cc(OCC2CO2)c1 (stereo not given)          Yes
6  Cc1c(C)n(Cc2ccccc2)c2ccc(C(=O)OCCN(C)C)cc12          Yes

Query block: What is the recorded call for this compound in the test? NC1(c2ccc(-c3nc4ccn5c(=O)[nH]nc5c4cc3-c3ccccc3)cc2)CCC1
Result block: Yes

Query block: Please give the result for CCCCCCOc1cc(C)c(O)c(C)c1C too.
Result block: Yes

Query block: Please give the result for Cc1cccc(Br)c1 too.
Result block: No

Query block: Please give the result for Cc1cccc(C)c1NC(=O)CN1CCN(CCCC(c2ccc(F)cc2)c2ccc(F)cc2)CC1 too.
Result block: Yes

====

# Assay name: qHTS assay to identify small molecule antagonists of the estrogen receptor alpha (ER-alpha) signaling pathway using the BG1 cell line (AID 743080);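 note: BG1 cells stimulated with 17beta-estradiol alongside compound; nearly all actives have a fitted effect of over 25% in size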
# Protocol conditions: BG1Luc4E2 ERE-luciferase antagonist mode, luminescence
# Excerpt: National Center for Advancing Translational Sciences [NCATS] NIH Chemical Genomics Center [NCGC] U.S. Environmental Protection Agency [EPA] National Institutes of Environmental Health Sciences [NIEHS] National Toxicology Program [NTP] U.S. Food and Drug Administration [FDA] Estrogen receptor (ER), a nuclear hormone receptor, plays an important role in development, metabolic homeostasis and reproduction. […]
Inconclusive results are not listed. Activity calls are given as the source filed them. Calls come from the whole dose curve.
Please answer using one outcome listed in active, inactive

> print(dat)
                                   molecule  class.label
1  O=C1NCCN1CCN1CCC(c2cn(-c3ccc(F)cc3)c3ccc(Cl)cc23)CC1       active
2       CCCCOC(=O)C(C)CC (stereo not drawn)     inactive
3                       c1ccc(Sc2ccccc2)cc1     inactive

Query block: What is the recorded call for this molecule in the test? CCN=C1C=CC(=C(c2ccc(N(CC)CC)cc2)c2ccc(N(CC)CC)cc2)c2ccccc21
Result block: active

====

# Tested target: Luciferin 4-monooxygenase (Photinus pyralis) (UniProt P08659)
# Sequence (P08659 whole entry, looked up): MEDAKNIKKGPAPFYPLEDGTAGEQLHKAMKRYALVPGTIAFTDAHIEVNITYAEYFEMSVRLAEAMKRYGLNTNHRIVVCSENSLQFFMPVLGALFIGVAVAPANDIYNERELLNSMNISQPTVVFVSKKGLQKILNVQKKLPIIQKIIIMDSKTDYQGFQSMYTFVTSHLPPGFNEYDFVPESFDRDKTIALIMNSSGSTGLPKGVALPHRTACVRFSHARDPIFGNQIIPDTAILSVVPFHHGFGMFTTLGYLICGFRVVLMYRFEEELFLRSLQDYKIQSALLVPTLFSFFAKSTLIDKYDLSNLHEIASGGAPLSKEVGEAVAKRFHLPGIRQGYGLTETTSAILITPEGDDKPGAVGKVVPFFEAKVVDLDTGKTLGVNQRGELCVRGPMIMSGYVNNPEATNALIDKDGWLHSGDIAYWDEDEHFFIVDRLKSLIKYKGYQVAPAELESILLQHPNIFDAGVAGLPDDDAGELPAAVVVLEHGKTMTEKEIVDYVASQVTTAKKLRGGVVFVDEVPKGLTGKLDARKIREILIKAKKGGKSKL
# Assay name: qHTS assay to identify small molecule inhibitors of firefly luciferase (AID 1224835); note: nearly all actives have a fitted effect of over 25% in size
# Protocol conditions: purified P. pyralis luciferase, luminescence inhibition; series mostly up to 115 µM
Records with an inconclusive call do not appear. The source made the active and inactive calls. The call rests on the fitted dose curve; in most records, active means well fitted inhibition curve with a large enough effect in the repeat runs; inconclusive means weak or mixed curves; inactive means flat fitted curve, though single readings scatter.
Please answer using one outcome listed in active, inactive

> print(dat)
                                   compound  class.label
1  CCCOc1sc(C(=O)N2CCC(c3cc(CN)ccc3F)CC2)c(C)c1Br     inactive
2                          Oc1cc2ccccc2cc1O     inactive
3  Cc1ccc(CCn2c3c(c4cc(Cl)ccc42)CN(C)CC3)cn1     inactive

Could you now look at the following compound, please?
Query block: What is the recorded call for this compound in the test? CCOB(OCC)OCC
Result block: inactive

====

# Assay name: qHTS RealTime-Glo MT Cell Viability Assay in HEK293 cells - 40 hour (AID 1224874); note: potency is the fitted concentration of half-maximal effect; nearly all actives have a fitted effect of over 50% in size
# Protocol conditions: RealTime-Glo luminescence
# Excerpt: U.S. Tox21 Program National Center for Advancing Translational Sciences [NCATS] NIH Chemical Genomics Center [NCGC] U.S. Environmental Protection Agency [EPA] National Institutes of Environmental Health Sciences [NIEHS] National Toxicology Program [NTP] U.S. Food and Drug Administration [FDA] Tox21 Assay Overview: Measure of cell viability is critical in the cell-base assay. Analysis of cell viability is necessary for the characterization of cell responses to cytotoxic drugs and environmental stress. […]
Inconclusive results are not listed. Activity calls are given as the source filed them. Calls follow the shape of the dose curve; as a rule, active = well fitted cell-killing curve with a large enough effect in the repeat runs; inconclusive = weak or mixed curves, or effect the other way; inactive = flat fitted curve, though single readings scatter.
Measured parameter: Potency

Below: 5 compounds and their reported Potency.
> print(dat)
                                   compound  measured.parameter  experimental.value
1          CC(C)N=C(N)/N=C(\N)Nc1ccc(Cl)cc1             Potency    26.8 µM (active)
2  CC(C)(c1cc(Br)c(OCCO)c(Br)c1)c1cc(Br)c(OCCO)c(Br)c1             Potency      12 µM (active)
3  COCC(=O)O[C@]1(CCN(C)CCCc2nc3ccccc3[nH]2)CCc2cc(F)ccc2[C@@H]1C(C)C             Potency    6.74 µM (active)
4  CCN(CC)CCOc1ccc(C(O)(Cc2ccc(Cl)cc2)c2ccc(C)cc2)cc1 (centres undefined)             Potency    10.7 µM (active)
5  CN1CCN(C2Cc3ccccc3Sc3ccc(Cl)cc32)CC1 (centres undefined)             Potency    23.9 µM (active)

Query block: # query: Potency of entry O=C(Nc1ccc(Cl)cc1)Nc1ccc(Cl)c(C(F)(F)F)c1
Result block: 5.35 µM (active)

Query block: Please give the result for O=C(Nc1ccc(Cl)c(Cl)c1)c1cc(Cl)cc(Cl)c1O too.
Result block: 4.9 µM (active)

Query block: Please give the result for CCN=C1C=CC(=C(c2ccc(N(CC)CC)cc2)c2ccc(N(CC)CC)cc2)c2ccccc21 too.
Result block: 5.46 µM (active)

Query block: Please give the result for COc1ccccc1OCCNCC(O)COc1cccc2[nH]c3ccccc3c12 (centres undefined) too.
Result block: 10.7 µM (active)

Query block: Please give the result for O[C@@H](c1cc(C(F)(F)F)nc2c(C(F)(F)F)cccc12)[C@H]1CCCCN1 too.
Result block: 8.49 µM (active)

Query block: Please give the result for Oc1ccc(-c2ccccc2)c(Cl)c1 too.
Result block: 21.9 µM (active)

Query block: Please give the result for CSc1ccc2c(c1)N(CCC1CCCCN1C)c1ccccc1S2 (centres undefined) too.
Result block: 15.4 µM (active)

Query block: Please give the result for Cc1c(-c2ccc(O)cc2)n(Cc2ccc(OCCN3CCCCCC3)cc2)c2ccc(O)cc12 too.
Result block: 3.38 µM (active)

Query block: Please give the result for CCCCCCCCCCCCCCNCCO too.
Result block: 12 µM (active)

Query block: Please give the result for O=C1C=CC(=O)N1c1ccccc1 too.
Result block: 11 µM (active)

Query block: Please give the result for CCCCCCCCCCOCC(O)CN (centres undefined) too.
Result block: 23.9 µM (active)

Query block: Please give the result for N#CSCSc1nc2ccccc2s1 too.
Result block: 19.5 µM (active)
